# logP per entry
// response body must contain only the number

// solved cases for logP follow
-- ask I would be grateful if you could share the reported logP for Cc1cc2c(nc1N)[nH]c1ccccc12 .
-- reply 2.9

-- ask Record: CN(C1=NC(=O)N(c2ccc(Cl)cc2)C1)C1CCCCC1
-- reply 2.7

-- ask Record: COc1coc(CCl)cc1=O
-- reply 0.16

-- ask Record: CN(C)CCOC(=O)c1ccc(C(C)(C)C)cc1
-- reply 3.94

-- ask Record: Brc1cc(Br)c(-c2ccccc2)c(Br)c1
-- reply 6.03

-- ask Record: CCCCOc1ccc(NC(=O)OCCN2CCCCC2)cc1
-- reply 4.69

Please find the next molecule below.
-- ask I would be grateful if you could share the reported logP for CC(=O)OCCCOC(=O)C(C)c1cccc(C(=O)c2ccccc2)c1 (configuration not stated) .
-- reply 3.6

---

Where a SMILES comes first, the peptide text is derived from it.
MEASUREMENT LABEL: logP
// response body must contain only the number

// solved cases for logP follow
-- ask I would be grateful if you could share the reported logP for Cc1cccc(-n2nnnc2N)c1 .
-- reply 1.24

-- ask Record: CN(C)CCOc1ccccc1Cl
-- reply 2.87

-- ask Record: O=C1C=C(N2CCOCC2)C(=O)N1c1ccc(F)cc1
-- reply 1.5

-- ask Record: O=C(NC1CCCCC1)NS(=O)(=O)c1cnccc1NC1CCCCCC1
-- reply 4.59

-- ask Record: CC1(C(=O)O)CSC(c2cc(O)ccc2O)=N1 (configuration not stated)
-- reply 1.3

Others:
-- ask I would be grateful if you could share the reported logP for CC(C)(O)C1CCC2(C)CCC3(CO3)C2C1 (configuration not stated) .
-- reply 2.9

-- ask Record: CC(C)CC(N)C(=O)NC(Cc1ccccc1)C(=O)O (stereo not drawn) (H-Leu-Phe-OH; configuration not given here)
-- reply -1.15

-- ask Record: CC(=O)c1ccc([N+](=O)[O-])cc1O
-- reply 2.05

---

Where a SMILES comes first, the peptide text is derived from it.
Could you please classify the records by logP using these ranges: class A = under 2, class B = from 2 up to 3, class C = 3 and over

Study these solved cases before continuing.
-- ask // return the class label for Cc1ccc(CNc2ncnc3nc[nH]c23)cc1
-- reply class B

-- ask Record: O=S(NC(=S)N1CCCCC1)c1cnccc1NC1CCCCC1 (stereo not given)
-- reply class C

-- ask Record: COC(=O)c1c(Oc2nc(OC)cc(OC)n2)cccc1C(C)=NOCC=C(Cl)Cl
-- reply class C

-- ask Record: Cc1cc2c(o1)c(C)cc1c(C)cc(=O)n(C)c12
-- reply class C

Others:
-- ask // return the class label for CCOc1cc2ncnc(Nc3cccc(Br)c3)c2cc1OCC
-- reply class C

-- ask Record: CCOC(=O)C1=C(C)NC(C)=C(C(=O)OC)C1c1cc(OC)cc(OC)c1 (stereo not given)
-- reply class C

-- ask Record: O=c1ccc(/C=C/c2ccc(-n3cnc4c3CCCC4)cc2)n[nH]1
-- reply class B

-- ask Record: COc1ccc(CCNCC(O)COc2ccc(-c3nc(Br)c[nH]3)cc2)cc1OC (stereo not given)
-- reply class C

-- ask Record: CCCc1cccc(CNc2[nH]cnc3ncnc2-3)c1
-- reply class C

-- ask Record: CN1CCc2ccccc2C1
-- reply class B

-- ask Record: CCN(CC)CCC(=O)Nc1ccccc1
-- reply class B

-- ask Record: NC(Cc1ccccc1)C(=O)NC(Cc1ccccc1)C(=O)NC(Cc1ccccc1)C(=O)O (stereo not drawn) (H-Phe-Phe-Phe-OH; configuration not given here)
-- reply class A

-- ask Record: CCCCCNCc1ccc(C)cc1
-- reply class C

-- ask Record: N#Cc1[nH]cc(-c2ccc(Cl)cc2)c1N1CCOCC1
-- reply class C

-- ask Record: COc1ccccc1N1CCN(c2ccc(Nn3c(C)ccc3C)nn2)CC1
-- reply class C

---

Where a SMILES comes first, the peptide text is derived from it.
# logP per entry
// response body must contain only the number

// solved cases for logP follow
-- ask I would be grateful if you could share the reported logP for CCCCCN(C)CC(=O)Nc1c(C)cccc1C .
-- reply 3.2

-- ask Record: Cc1c(O)c(=O)ccn1CCCOC(=O)c1ccc(F)cc1
-- reply 1.47

-- ask Record: COC(=O)C=CCn1cc([N+](=O)[O-])nc1C
-- reply 0.16

-- ask Record: CN(C)CCOc1cc2c(c3ccccc13)-c1ccccc1C2=O
-- reply 4.32

-- ask Record: O=C(NO)C(Cc1ccccc1)C(=O)NCc1ccc(F)cc1 (configuration not stated)
-- reply 1.8

-- ask Record: Nc1nnnn1-c1ccccc1
-- reply 0.69

Others:
-- ask I would be grateful if you could share the reported logP for COc1coc(CSC(=S)N(C)C)cc1=O .
-- reply 1.14

-- ask Record: CC(C)C(=O)OCC1OC(n2cc(I)c(=O)[nH]c2=O)CC1O (configuration not stated)
-- reply 0.84

-- ask Record: Brc1cc(Br)c(N=C2NCCN2)c(Br)c1
-- reply 2.54

-- ask Record: Cc1ccc2c(c1)COP(=O)(OCC1C=CC(n3cc(C)c(=O)[nH]c3=O)O1)O2 (configuration not stated)
-- reply 0.73

-- ask Record: Brc1ccc2ccc3cccc4ccc1c2c34
-- reply 5.81

-- ask Record: CC(C)CC(NC(=O)C(CC(C)C)NC(=O)CNC(=O)C(N)Cc1c[nH]c2ccccc12)C(=O)O (configuration not stated) (H-WGLL-OH; configuration not given here)
-- reply 0.06

---

Where a SMILES comes first, the peptide text is derived from it.
Consider the cut-off 2. If the recorded logP is strictly smaller, the label is MET; if not, the label is NOT MET.

Study these solved cases before continuing.
-- ask Please check: logP for CC(C)CC(N)C(=O)NC(CC(C)C)C(=O)NC(CC(C)C)C(=O)NC(Cc1ccccc1)C(=O)O (stereo unspecified) (H-LLLF-OH; configuration not given here) , strictly under 2 or not?
-- reply MET

-- ask Record: O=[N+]([O-])c1ccc(CSc2ncnc3c2ncn3C2OC(CO)C(O)C2O)cc1 (stereo unspecified)
-- reply MET

-- ask Record: CCCCCCCCNCCO
-- reply NOT MET

-- ask Record: Brc1c2ccccc2cc2ccccc12
-- reply NOT MET

-- ask Record: CSCCC(N)C(=O)NC(Cc1ccc(O)cc1)C(=O)O (stereo not drawn) (H-Met-Tyr-OH; configuration not given here)
-- reply MET

-- ask Record: COc1ccc(O)c(C2=NC(C)(C(=O)O)CS2)c1 (stereo unspecified)
-- reply MET

Others:
-- ask Please check: logP for CCCOc1cccc(NC(=O)OCCN2CCCCC2)c1 , strictly under 2 or not?
-- reply NOT MET

-- ask Record: O=C1N=C(N2CCOCC2)CN1Cc1ccc(Br)cc1
-- reply MET

-- ask Record: Cc1cc(C)cc(Cc2c[nH]cn2)c1
-- reply NOT MET

-- ask Record: Cc1cc2c(C)c3ccc(=O)oc3cc2o1
-- reply NOT MET

-- ask Record: OCCCCCCNc1ncnc2nc[nH]c12
-- reply MET

-- ask Record: CC(Nc1ccc([N+](=O)[O-])cc1[N+](=O)[O-])C(=O)O (stereo unspecified)
-- reply NOT MET

-- ask Record: COc1ccc(CCNCC(O)COc2ccc(Cc3nc(C)c[nH]3)cc2)cc1OC (stereo unspecified)
-- reply NOT MET

-- ask Record: CC(C(=O)O)c1ccc(OCc2ccccc2)c(F)c1 (stereo unspecified)
-- reply NOT MET

-- ask Record: O=c1nc2[nH]nc(-c3ccccc3)cc-2c(=O)[nH]1
-- reply MET

-- ask Record: Nc1nnnn1-c1cc(Cl)c(Cl)cc1Cl
-- reply NOT MET

-- ask Record: CCC(C)C(NC(=O)C(CC(C)C)NC(=O)C(NC(=O)C(N)CCSC)C(C)CC)C(=O)O (stereo unspecified) (H-MILI-OH; configuration not given here)
-- reply MET

-- ask Record: CCNc1nc(N)nc(O)n1
-- reply MET

-- ask Record: COC1CC(OC2C(O)CC(OC3CCC4(C)C(CCC5C4CCC4(C)C(C6=CC(=O)OC6)CCC54O)C3)OC2C)OC(C)C1OC1CC(O)C(O)C(C)O1 (stereo unspecified)
-- reply NOT MET

-- ask Record: CC(=O)OCOC(=O)N(C)N=Nc1ccc(C)cc1
-- reply NOT MET

-- ask Record: Nc1cccc(Cn2cnc3ccccc32)c1
-- reply MET

-- ask Record: CC(C)CC(NC(=O)C(N)CO)C(=O)O (stereo not drawn) (H-Ser-Leu-OH; configuration not given here)
-- reply MET

-- ask Record: O=C1Oc2ccccc2CN1CCO[N+](=O)[O-]
-- reply MET

---

Where a SMILES comes first, the peptide text is derived from it.
Could you please classify the records by logP using these ranges: LOW (below 0.9), MEDIUM (0.9 to below 3), HIGH (3 or more)

-- ask // return the class label for COc1ccc(C2=NC(C(=O)O)CS2)c(O)c1OC (stereo unspecified)
-- reply MEDIUM

-- ask Record: CCNC(=NC#N)NS(=O)(=O)c1cnccc1NC1CCCCC1
-- reply MEDIUM

-- ask Record: CC(C)NC(=NC#N)NS(=O)(=O)c1cnccc1Nc1cccc(I)c1
-- reply MEDIUM

-- ask Record: CC(CO)N(C)C (stereo unspecified)
-- reply LOW

-- ask Record: COc1cc2ncnc(Nc3cc(F)cc(C(F)(F)F)c3)c2cc1OC
-- reply HIGH

-- ask Record: CSCCC(N)C(=O)NC(C(=O)O)C(C)C (stereo not drawn) (H-Met-Val-OH; configuration not given here)
-- reply LOW

-- ask Record: O=S(=O)(c1ccccc1)C(F)(F)F
-- reply MEDIUM

-- ask Record: CC(C)CC(NC(=O)C(Cc1ccccc1)NC(=O)CNC(=O)C(NC(=O)C(N)Cc1ccc(O)cc1)C(C)O)C(=O)O (stereo unspecified) (H-YTGFL-OH; configuration not given here)
-- reply LOW

-- ask Record: CCCCCC(=O)OCC(=O)C1(O)C(C)CC2C3CCC4=CC(=O)C=CC4(C)C3(F)C(O)CC21C (stereo unspecified)
-- reply HIGH
